The following compounds are listed with their measured pEC50 values.
- ASSAY TARGET: Gamma-secretase
- PROTOCOL SUMMARY: Modulation of gamma-secretase in human H4 cells assessed as increase in amyloid beta38 production by LPECL assay
# pEC50 = -log10(concentration in molar units)

CCCCCCCC/C=C/CCCCCCCC(=O)n1c2ccccc2c2ccc(OCC(=O)O)cc21; 5.03
CCCCCCCCCC(=O)n1c2ccccc2c2ccc(OCC(=O)O)cc21; 4.90
CCCCCCCCO/N=C(/c1ccc(Cl)cc1)c1ccc(OC(C)(C)C(=O)O)cc1; 4.79

# input for lookup
Query: For Gamma-secretase, give pEC50 of the listed compound: CCCCCCCCCCCCCCCCCCn1c2ccccc2c2ccc(OCC(=O)O)cc21
Result: 5.85

Data origin: ChEMBL document CHEMBL1153709
